Values compiled from patent US20230148599A1.

test system: Septoria tritici; test: Test A: wheat leaf blotch, preventive spray on wheat seedlings; assay type: in vivo; conditions: 50 ppm, 100 = 100% disease control, 0 = no control
test readout: Test A disease control rating (%)
Value expressed in %; do not type the unit.

Cc1nn(C)c(Nc2ccc(OCC(F)F)cc2[N+](=O)[O-])c1-c1ccc(F)cc1Cl :: 100
Cc1nn(C)c(Nc2ccccc2[N+](=O)[O-])c1-c1ccc(F)cc1Br :: 98
COc1ccc(-c2c(C)nn(C)c2Nc2ccc(Cl)cc2[N+](=O)[O-])c(Cl)c1 :: 99
Cc1nn(C)c(Nc2c(F)cccc2[N+](=O)[O-])c1-c1c(F)cc(C#N)cc1F :: 100
COc1ccc(-c2c(C)nn(C)c2Nc2c(F)cccc2[N+](=O)[O-])c(Cl)c1 :: 100

Continue with the next compound.
Prompt: Fill in the blank: the reported Test A disease control rating of `COc1ccc(Nc2c(-c3c(F)cccc3Cl)c(C)nn2C)c([N+](=O)[O-])c1` is ____.
Completion: 100
